FYI, the data here is from PubChem BioAssay (NCI).

system: SK-OV-3 ovarian; assay: NCI-60 one-dose screen, 48 h; details: 10 µM unless noted
This is part of a sample that, as a whole, favours compounds with a hit. Of some 83,000 tested, about 20% had one in any assay. Active and inactive are the calls of the source. The calls were made as follows: active = growth percent below 10; inactive = the rest. *1 amine or outer side, *2 acyl side, *3 side chain or, on linkers, in order; H or OH if unused. Where a SMILES comes first, the peptide text is derived from it. [ ]: non-standard residue; d: D form. The star is where a group is joined. X5 = CCC(=O)CC1CC(C)CC(C(=O)[*:2])N1[*:1]; X4 = CCCCCCCCC(C)C(=O)*; Aib = CC(C)(N)C(=O)O; X6 = CC(CN(C)CCO)N*
Labels: active, inactive

[[record]]
molecule = "CN(C)c1ccc(/C=C/c2nccc3ccccc23)cc1"
group = "inactive"

[[record]]
molecule = "CCCCCCCCCCCC[n+]1ccccc1 (tested in a mixture with another compound)"
group = "active"

[[record]]
molecule = "C(=N\\Nc1ccc2ccccc2n1)/c1ccccn1"
group = "inactive"

[[record]]
molecule = "S=C=Nc1ccc(N2CCOCC2)cc1"
group = "inactive"

[[record]]
molecule = "Cc1cc(C)c([I+]c2c(C)cc(C)cc2C)c(C)c1"
group = "active"

[[record]]
molecule = "CC(=O)c1ccc2c(c1)CCc1ccccc1-2"
group = "inactive"

[[record]]
molecule = "O=C(Nc1ccc(Cl)c(Cl)c1)OCc1ccco1"
group = "inactive"

[[record]]
molecule = "COc1cc([C@@H]2c3cc4c(cc3[C@H](OC3OC5COC(c6ccccc6)OC5C(O)C3O)[C@H]3COC(=O)[C@H]23)OCO4)cc(OC)c1OC (some centres not stated)"
group = "inactive"

[[record]]
molecule = "CC[n+]1ccc(Nc2ccc(NC(=O)c3ccc(Nc4cc[n+](CC)c5ccc([N+](=O)[O-])cc45)cc3)cc2)cc1"
group = "inactive"

[[record]]
molecule = "CCCC[n+]1c(/C=C\\c2c(OC)cc(OC)cc2OC)ccc2ccccc21"
group = "active"

[[record]]
molecule = "Nc1ccc(Oc2ccccc2)c(Cl)c1"
group = "inactive"

[[record]]
molecule = "Cc1cc(=O)oc2cc(O)cc(O)c12"
group = "inactive"

[[record]]
molecule = "OC(c1cc2ccc(C(F)(F)F)cc2c2cc(C(F)(F)F)ccc12)C1CCCCN1 (configuration not stated)"
group = "active"

[[record]]
molecule = "COc1cc(/C=C/C(=O)CC(=O)/C=C/c2ccc(O)c(OC)c2)ccc1O"
group = "inactive"

[[record]]
molecule = "CCC1C[N+]2=C(c3cc(OC)c(OC)cc3CC2)c2c1cc1n2CCc2cc(OC)c(OC)cc2-1 (configuration not stated)"
group = "inactive"

[[record]]
molecule = "CCC[CH2][Sn]1([CH2]CCC)[O]C2C(CO)OC(n3ccc(N)nc3=O)C2[O]1 (configuration not stated)"
group = "inactive"

[[record]]
molecule = "CC(=O)C1Cc2ccccc2C1=O (configuration not stated)"
group = "inactive"

[[record]]
molecule = "CCCCCCCCC(C)C(=O)N1CCCC1C(=O)N1C(CC(=O)CC)CC(C)CC1C(=O)NC(C)C(=O)NC(C)(C)C(=O)NC(C)(C)C(=O)NC(C(=O)NC(C)C(=O)NC(C)(C)C(=O)NC(C)(C)C(=O)NC(C)CN(C)CCO)C(C)CC (configuration not stated) (X4-P[X5]A[Aib][Aib]IA[Aib][Aib]-X6; configuration not given here)"
group = "active"

[[record]]
molecule = "Nc1nc(N)c2cc(Sc3cccc(C(F)(F)F)c3)ccc2n1"
group = "inactive"

[[record]]
molecule = "O=C(c1ccccc1)N(CCCl)C(=O)N(CCCl)C(=O)c1ccccc1"
group = "inactive"

[[record]]
molecule = "O=C1c2ccccc2C(=O)c2c(O)c(Cl)cc(O)c21"
group = "inactive"

[[record]]
molecule = "C/C(=N\\NC(=S)N1CC2CCC(CC2)C1)c1ccccn1"
group = "inactive"

[[record]]
molecule = "CCN(CC)CCNc1ccc([N+](=O)[O-])c2sc3ccccc3c(=O)c12"
group = "inactive"

[[record]]
molecule = "O=Nc1ccc2ccccc2c1O"
group = "inactive"

[[record]]
molecule = "Cc1cc2nc(CC(=O)c3ccncc3)c(=O)[nH]c2cc1C"
group = "inactive"

[[record]]
molecule = "O/N=C1\\c2ccccc2-c2ccc(F)cc21"
group = "inactive"

[[record]]
molecule = "CCc1cnc2ccccc2c1/C=C/c1ccc(N(C)C)cc1"
group = "inactive"

[[record]]
molecule = "CCCCCCCCCCCCCCCCSC(=NCC)NCC"
group = "inactive"

[[record]]
molecule = "Cc1cc(C(N)=O)cc(C)c1C(=O)OCCCl"
group = "inactive"

[[record]]
molecule = "CCOc1ccc(C(CN2CCOCC2)C(C)=O)cc1OC (configuration not stated)"
group = "inactive"

[[record]]
molecule = "Cc1nc(Sc2nc3ccc([N+](=O)[O-])cc3s2)sc1C"
group = "inactive"

[[record]]
molecule = "O=C(O)c1cc2c(s1)C(=O)c1sccc1C2=O"
group = "inactive"

[[record]]
molecule = "CC(/C=N/NC(N)=S)Cc1ccc(C(C)C)cc1 (configuration not stated)"
group = "inactive"

[[record]]
molecule = "Cc1ccc(Nc2ccc(O)c3c2C(=O)c2c(O)ccc(Nc4ccc(C)cc4)c2C3=O)cc1"
group = "inactive"

[[record]]
molecule = "CC(=O)c1c(O)c(C)c(O)c2c1OC1=CC(=O)C(C(C)=O)C(=O)C12C (configuration not stated)"
group = "inactive"

[[record]]
molecule = "O=C(c1ccccc1)C(O)C(Br)(CBr)c1ccccc1 (configuration not stated)"
group = "inactive"

[[record]]
molecule = "S=c1[nH]c2cc(Cl)ccc2s1"
group = "inactive"


====

compounds and their reported growth
test system: SK-MEL-2 melanoma; assay: NCI-60 one-dose screen, 48 h (100 = growth as untreated, 0 = no growth, -100 = all killed); settings: 10 µM unless noted
Compounds without any hit were thinned out: in the full panel of roughly 83,000, 20% have a hit.
measure: growth (%)

[[record]]
structure_string = "CC(C)(C)c1ccc(CCO)cc1"
measure = "growth"
test_result = 92.3

[[record]]
structure_string = "CCc1oc2ccccc2c1C(=O)c1cc(Br)c(O)c(Br)c1"
measure = "growth"
test_result = 59.6

[[record]]
structure_string = "CC[n+]1ccc(Nc2ccc(NC(=O)c3ccc(Nc4cc[n+](CC)c5ccc([N+](=O)[O-])cc45)cc3)cc2)cc1"
measure = "growth"
test_result = 111

[[record]]
structure_string = "O=C(c1ccccc1)c1cc2ccccc2oc1=O"
measure = "growth"
test_result = 126


====

tested on: NCI-H322M lung; assay: NCI-60 one-dose screen, 48 h; conditions: 10 µM unless noted
Compounds without any hit were thinned out: in the full panel of roughly 83,000, 20% have a hit. Active and inactive are the calls of the source. How the source made its calls: active means growth percent below 10; inactive means the rest.
Labels: active, inactive

[[record]]
compound = "CC(=O)C1Cc2ccccc2C1=O (stereo unspecified)"
tgt = "NCI-H322M lung"
group = "inactive"

[[record]]
compound = "[Cl-].[Rh+3].c1ccc(-c2ccnc3c2ccc2c(-c4ccccc4)ccnc23)cc1.c1ccc(-c2ccnc3c2ccc2c(-c4ccccc4)ccnc23)cc1.c1ccc(-c2ccnc3c2ccc2c(-c4ccccc4)ccnc23)cc1"
tgt = "NCI-H322M lung"
group = "inactive"

[[record]]
compound = "COC(=O)c1ccc(=O)c2nc3/c(=C/O)c(O)cc(=O)c3[nH]c12"
tgt = "NCI-H322M lung"
group = "inactive"

[[record]]
compound = "CCCN(CCC)C(=O)c1ccc(C)cc1"
tgt = "NCI-H322M lung"
group = "inactive"

[[record]]
compound = "O=C(Cc1nc2cc(Cl)c(Cl)cc2nc1CC(=O)c1ccccc1)c1ccccc1"
tgt = "NCI-H322M lung"
group = "inactive"

[[record]]
compound = "Nc1nc(-c2ccccc2)nc(N)c1N=O"
tgt = "NCI-H322M lung"
group = "inactive"

[[record]]
compound = "Oc1ccc2c(c1)CCc1ccccc1-2"
tgt = "NCI-H322M lung"
group = "inactive"

[[record]]
compound = "C/C=C/c1cc2c(c(=O)o1)C(=O)[C@@H](O)[C@H](C)O2"
tgt = "NCI-H322M lung"
group = "inactive"

[[record]]
compound = "c1ccc(-c2cc3cc4ccccc4cn3c2)cc1"
tgt = "NCI-H322M lung"
group = "inactive"

[[record]]
compound = "Cc1cccc2c(N)c3ccccc3nc12"
tgt = "NCI-H322M lung"
group = "active"

[[record]]
compound = "COc1ccc2c(c1)c(CC(=O)O)c(C)n2C(=O)c1ccc(Cl)cc1"
tgt = "NCI-H322M lung"
group = "inactive"

[[record]]
compound = "CC(O)C(O)C(O)C(O)C(O)C(=O)NNc1ccccc1 (stereo unspecified)"
tgt = "NCI-H322M lung"
group = "inactive"

[[record]]
compound = "Cc1ccc(/C=C2\\CNC/C(=C\\c3ccc(C)cc3)C2=O)cc1"
tgt = "NCI-H322M lung"
group = "inactive"

[[record]]
compound = "O=C(O)c1cccc2cccc(-c3c4ccc(=O)c(O)c-4oc4c(O)c(O)ccc34)c12"
tgt = "NCI-H322M lung"
group = "inactive"

[[record]]
compound = "OC(CSc1ccccc1)CN1CCN(c2ccc(Cl)cc2)CC1 (stereo unspecified)"
tgt = "NCI-H322M lung"
group = "inactive"

[[record]]
compound = "CCCCCCCCCCCCCCCC[N+]1(C)CCCC1c1cccnc1 (stereo unspecified)"
tgt = "NCI-H322M lung"
group = "inactive"

